Source of measurements: patent US20240309109A1

# system: T1, human CD38 on cells (human, UniProt P28907 1-300)
# T1 construct: The cell that carried CD38 is named under assay in each row; also called CD38 on Raji, RPMI8226, OPM2, CCRF-CEM, human erythrocytes, CD38 CHO-K1 transfectants
# assay-procedure: FACS Scatchard on RPMI8226 cells
reported-endpoint: pEC50
In plain terms, pEC50 is the concentration in mol/L turned into minus its base-10 logarithm.

Please review the entries below; each comes with its answer.
[
  {
    "binder": "MOR06187 Fab (Fab, V domains shown, Fab format) VH: QVQLVESGGGLVQPGGSLRLSCAASGFTFSSYYMNWVRQAPGKGLEWVSAISSNGDITYYADSVKGRFTISRDNSKNTLYLQMNSLRAEDTAVYYCARDLPLVYTGFAYWGQGTLVTVSS VL: DIELTQPPSVSVAPGQTARISCSGDNLRHYYVYWYQQKPGQAPVLVIYGDSKRPSGIPERFSGSNSGNTATLTISGTQAEDEADYYCQTYTGGASLVFGGGTKLTVL",
    "observed": 7.77
  },
  {
    "binder": "MOR06195 Fab (Fab, V domains shown, Fab format) VH: QVQLVESGGGLVQPGGSLRLSCAASGFTFSSYYMNWVRQAPGKGLEWVSAISGNGGHTYYADSVKGRFTISRDNSKNTLYLQMNSLRAEDTAVYYCARDLPLVYTGFAYWGQGTLVTVSS VL: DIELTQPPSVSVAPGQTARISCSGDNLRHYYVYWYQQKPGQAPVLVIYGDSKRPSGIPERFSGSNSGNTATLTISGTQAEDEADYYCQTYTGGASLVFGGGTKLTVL",
    "observed": 8.25
  }
]

Value lookup for pEC50; key = MOR06190 Fab (Fab, V domains shown, Fab format) VH: QVQLVESGGGLVQPGGSLRLSCAASGFTFSSYYMNWVRQAPGKGLEWVSYINPNGMMTNYADSVKGRFTISRDNSKNTLYLQMNSLRAEDTAVYYCARDLPLVYTGFAYWGQGTLVTVSS VL: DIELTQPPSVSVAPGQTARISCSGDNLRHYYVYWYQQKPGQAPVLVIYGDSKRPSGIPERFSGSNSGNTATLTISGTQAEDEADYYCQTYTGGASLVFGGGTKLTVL 7.93

Quick one: MOR06188 Fab (Fab, V domains shown, Fab format) VH: QVQLVESGGGLVQPGGSLRLSCAASGFTFSSYYMNWVRQAPGKGLEWVSAISTNGWQTYYADSVKGRFTISRDNSKNTLYLQMNSLRAEDTAVYYCARDLPLVYTGFAYWGQGTLVTVSS VL: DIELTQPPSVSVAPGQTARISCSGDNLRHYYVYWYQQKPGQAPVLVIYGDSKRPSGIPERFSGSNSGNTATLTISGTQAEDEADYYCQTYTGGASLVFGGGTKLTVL 7.64

Again, but for MOR06201 Fab (Fab, V domains shown, Fab format) VH: QVQLVESGGGLVQPGGSLRLSCAASGFTFSSYYMNWVRQAPGKGLEWVSAISMHGDTTYYADSVKGRFTISRDNSKNTLYLQMNSLRAEDTAVYYCARDLPLVYTGFAYWGQGTLVTVSS VL: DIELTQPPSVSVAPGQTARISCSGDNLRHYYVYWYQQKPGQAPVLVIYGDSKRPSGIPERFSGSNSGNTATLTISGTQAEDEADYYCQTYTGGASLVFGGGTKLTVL 8.05
